Test system: Echinochloa crus-galli
Test details: Herbicidal activity against Echinochloa crus-galli (barnyard grass) assessed as killing at 100 g/10 acre measured after 3 weeks by pre-emergence/field application test
Format: functional
Consider the following compounds and their measured Activity readings.
Reported endpoint: Activity (%)

Molecular string | Reported value
COc1ccc(CNc2nc(C)nc(C(F)(F)F)n2)cc1 | 76
Cc1nc(NCc2cccc(Cl)c2)nc(C(F)(F)F)n1 | 1
Cc1nc(NCc2ccc(F)cc2)nc(C(F)(F)F)n1 | 76
Cc1nc(NCc2ccc(C(F)(F)F)cc2)nc(C(F)(F)F)n1 | 76

---

Test system: Chenopodium album
Test details: Herbicidal activity against Chenopodium album assessed as killing at 800 g/10 acre measured after 3 weeks by pre-emergence/field application test
Assay type: functional

Molecular string | Activity / %
c1ccc(CNc2ncncn2)cc1 | 0
CC(C)c1nc(NCc2ccccc2)nc(C(F)(F)F)n1 | 76
Cc1nc(NCc2ccccc2)nc(-c2ccccc2)n1 | 0
Cc1nc(NCCc2ccccc2)nc(C(F)(F)F)n1 | 91
Cc1nc(NCCCc2ccccc2)nc(C(F)(F)F)n1 | 76
CCc1nc(C)nc(NCc2ccccc2)n1 | 51
Cc1ncnc(NCc2ccccc2)n1 | 0
CCCc1nc(C)nc(NCc2ccccc2)n1 | 0
Cc1nc(NCc2ccccc2)nc(C(Cl)(Cl)Cl)n1 | 0
Cc1nc(C)nc(NCc2ccccc2)n1 | 0

---

System: Digitaria ciliaris
Test details: Herbicidal activity against Digitaria ciliaris assessed as killing at 400 g/10 acre measured after 3 weeks by post-emergence/foliar application test
Assay type: functional

Molecular string | Experimental system | Unit abbreviation | Activity
Cc1nc(NCc2ccccc2)nc(C(Cl)(Cl)Cl)n1 | Digitaria ciliaris | % | 0
CC(C)c1nc(NCc2ccccc2)nc(C(F)(F)F)n1 | Digitaria ciliaris | % | 0
Cc1nc(NCc2ccccc2)nc(C(F)(F)F)n1 | Digitaria ciliaris | % | 76
Cc1nc(NCc2ccccc2)nc(-c2ccccc2)n1 | Digitaria ciliaris | % | 0
Cc1nc(NCCCc2ccccc2)nc(C(F)(F)F)n1 | Digitaria ciliaris | % | 76
CCc1nc(NCc2ccccc2)nc(C(F)(F)F)n1 | Digitaria ciliaris | % | 1
c1ccc(CNc2ncncn2)cc1 | Digitaria ciliaris | % | 0
Cc1nc(C)nc(NCc2ccccc2)n1 | Digitaria ciliaris | % | 1
Cc1ncnc(NCc2ccccc2)n1 | Digitaria ciliaris | % | 0
CCCc1nc(C)nc(NCc2ccccc2)n1 | Digitaria ciliaris | % | 1
Cc1nc(NCCc2ccccc2)nc(C(F)(F)F)n1 | Digitaria ciliaris | % | 0

---

Consider the following compounds and their measured Activity readings.
System: Echinochloa crus-galli
Test details: Herbicidal activity against Echinochloa crus-galli (barnyard grass) assessed as killing at 100 g/10 acre measured after 3 weeks by post-emergence/foliar application test
Assay type: functional
Reported endpoint: Activity (%)

Molecular string | Reported value
Cc1nc(NCc2ccc(Cl)cc2)nc(C(F)(F)F)n1 | 26
Cc1nc(NCc2ccc(F)cc2)nc(C(F)(F)F)n1 | 51
Cc1nc(NCc2ccc(Br)cc2)nc(C(F)(F)F)n1 | 26
Cc1nc(NCc2ccccc2Cl)nc(C(F)(F)F)n1 | 0
COc1ccc(CNc2nc(C)nc(C(F)(F)F)n2)cc1 | 26
Cc1ccc(CNc2nc(C)nc(C(F)(F)F)n2)cc1 | 1
Cc1nc(NCc2cccc(Cl)c2)nc(C(F)(F)F)n1 | 51
Cc1nc(NCc2ccc(C(C)(C)C)cc2)nc(C(F)(F)F)n1 | 26
CCNc1nc(Cl)nc(NC(C)C)n1 | 26
Cc1nc(NCc2ccc(C(F)(F)F)cc2)nc(C(F)(F)F)n1 | 1

---

Tested on: Echinochloa crus-galli
Test details: Herbicidal activity against Echinochloa crus-galli (barnyard grass) assessed as killing at 100 g/10 acre measured after 3 weeks by pre-emergence/field application test
Type: functional
Consider the following compounds and their measured Activity readings.
Reported endpoint: Activity (%)

Compound | Reported value
Cc1ccc(CNc2nc(C)nc(C(F)(F)F)n2)cc1 | 76
Cc1nc(NCc2ccc(Cl)cc2)nc(C(F)(F)F)n1 | 51
Cc1nc(NCc2ccc(Br)cc2)nc(C(F)(F)F)n1 | 76
Cc1nc(NCc2ccc(C(C)(C)C)cc2)nc(C(F)(F)F)n1 | 26
Cc1nc(NCc2ccccc2Cl)nc(C(F)(F)F)n1 | 1
CCNc1nc(Cl)nc(NCC)n1 [SIMAZINE] | 26

---

Consider the following compounds and their measured Activity readings.
System: Digitaria ciliaris
Test details: Herbicidal activity against Digitaria ciliaris assessed as killing at 100 g/10 acre measured after 3 weeks by pre-emergence/field application test
Format: functional

Molecular string | Activity
COc1ccc(CNc2nc(C)nc(C(F)(F)F)n2)cc1 | 0%
Cc1nc(NCc2ccc(Br)cc2)nc(C(F)(F)F)n1 | 91%
Cc1nc(NCc2ccc(C(C)(C)C)cc2)nc(C(F)(F)F)n1 | 76%
Cc1nc(NCc2ccccc2Cl)nc(C(F)(F)F)n1 | 1%
CCNc1nc(Cl)nc(NCC)n1 | 51%
Cc1ccc(CNc2nc(C)nc(C(F)(F)F)n2)cc1 | 1%
Cc1nc(NCc2ccc(C(F)(F)F)cc2)nc(C(F)(F)F)n1 | 100%
Cc1nc(NCc2cccc(Cl)c2)nc(C(F)(F)F)n1 | 51%
Cc1nc(NCc2ccc(Cl)cc2)nc(C(F)(F)F)n1 | 91%
Cc1nc(NCc2ccc(F)cc2)nc(C(F)(F)F)n1 | 76%

---

System: Echinochloa crus-galli
Test details: Herbicidal activity against Echinochloa crus-galli (barnyard grass) assessed as killing at 800 g/10 acre measured after 3 weeks by pre-emergence/field application test
Type: functional
Reported endpoint: Activity

Molecular string | Experimental system | Reported value
CCc1nc(NCc2ccccc2)nc(C(F)(F)F)n1 | Echinochloa crus-galli | 51%
CCCc1nc(C)nc(NCc2ccccc2)n1 | Echinochloa crus-galli | 0%
c1ccc(CNc2ncncn2)cc1 | Echinochloa crus-galli | 0%
CCc1nc(C)nc(NCc2ccccc2)n1 | Echinochloa crus-galli | 0%
Cc1nc(NCCc2ccccc2)nc(C(F)(F)F)n1 | Echinochloa crus-galli | 51%
Cc1nc(NCc2ccccc2)nc(C(F)(F)F)n1 | Echinochloa crus-galli | 100%
Cc1ncnc(NCc2ccccc2)n1 | Echinochloa crus-galli | 0%
Cc1nc(NCc2ccccc2)nc(C(Cl)(Cl)Cl)n1 | Echinochloa crus-galli | 0%
CC(C)c1nc(NCc2ccccc2)nc(C(F)(F)F)n1 | Echinochloa crus-galli | 76%
Cc1nc(C)nc(NCc2ccccc2)n1 | Echinochloa crus-galli | 0%
Cc1nc(NCc2ccccc2)nc(-c2ccccc2)n1 | Echinochloa crus-galli | 0%
Cc1nc(NCCCc2ccccc2)nc(C(F)(F)F)n1 | Echinochloa crus-galli | 76%

---

Consider the following compounds and their measured Activity readings.
System: Pontederia vaginalis
Test details: Herbicidal activity against Monochoria vaginalis assessed as killing at 800 g/10 acre measured after 3 weeks by pre-emergence/paddy application test
Format: functional
Reported endpoint: Activity

Molecular string | Experimental system | Reported endpoint | Reported value
CCc1nc(NCc2ccccc2)nc(C(F)(F)F)n1 | Pontederia vaginalis | Activity | 100%
Cc1nc(NCCc2ccccc2)nc(C(F)(F)F)n1 | Pontederia vaginalis | Activity | 76%
Cc1nc(C)nc(NCc2ccccc2)n1 | Pontederia vaginalis | Activity | 100%
Cc1nc(NCCCc2ccccc2)nc(C(F)(F)F)n1 | Pontederia vaginalis | Activity | 51%
Cc1ncnc(NCc2ccccc2)n1 | Pontederia vaginalis | Activity | 0%
CCCc1nc(C)nc(NCc2ccccc2)n1 | Pontederia vaginalis | Activity | 26%
CCc1nc(C)nc(NCc2ccccc2)n1 | Pontederia vaginalis | Activity | 51%
Cc1nc(NCc2ccccc2)nc(C(Cl)(Cl)Cl)n1 | Pontederia vaginalis | Activity | 100%
Cc1nc(NCc2ccccc2)nc(C(F)(F)F)n1 | Pontederia vaginalis | Activity | 100%
c1ccc(CNc2ncncn2)cc1 | Pontederia vaginalis | Activity | 0%
Cc1nc(NCc2ccccc2)nc(-c2ccccc2)n1 | Pontederia vaginalis | Activity | 0%
CC(C)c1nc(NCc2ccccc2)nc(C(F)(F)F)n1 | Pontederia vaginalis | Activity | 100%

---

Tested on: Schoenoplectiella juncoides
Test details: Herbicidal activity against Schoenoplectiella juncoides assessed as killing at 100 g/10 acre measured after 3 weeks by pre-emergence/paddy application test
Type: functional
Consider the following compounds and their measured Activity readings.

Molecular string | Experimental system | Activity
Cc1nc(NCc2ccccc2Cl)nc(C(F)(F)F)n1 | Schoenoplectiella juncoides | 1%
Cc1nc(NCc2cccc(Cl)c2)nc(C(F)(F)F)n1 | Schoenoplectiella juncoides | 51%
Cc1nc(NCc2ccc(Cl)cc2)nc(C(F)(F)F)n1 | Schoenoplectiella juncoides | 76%
Cc1nc(NCc2ccc(F)cc2)nc(C(F)(F)F)n1 | Schoenoplectiella juncoides | 51%
Cc1nc(NCc2ccc(C(F)(F)F)cc2)nc(C(F)(F)F)n1 | Schoenoplectiella juncoides | 51%
COc1ccc(CNc2nc(C)nc(C(F)(F)F)n2)cc1 | Schoenoplectiella juncoides | 1%
Cc1nc(NCc2ccc(Br)cc2)nc(C(F)(F)F)n1 | Schoenoplectiella juncoides | 76%
Cc1ccc(CNc2nc(C)nc(C(F)(F)F)n2)cc1 | Schoenoplectiella juncoides | 0%
Cc1nc(NCc2ccc(C(C)(C)C)cc2)nc(C(F)(F)F)n1 | Schoenoplectiella juncoides | 1%
